target: Potassium voltage-gated channel subfamily KQT member 2 (Rattus norvegicus) (UniProt O88943); test: KCNQ2 potentiation in CHO cells – cell-based, FluxOR thallium flux, counter-screen for hERG block protector project, confirmation (AID 1942); conditions: FluxOR thallium flux fluorescence, at 10 µM
Sequence (O88943 whole entry, looked up): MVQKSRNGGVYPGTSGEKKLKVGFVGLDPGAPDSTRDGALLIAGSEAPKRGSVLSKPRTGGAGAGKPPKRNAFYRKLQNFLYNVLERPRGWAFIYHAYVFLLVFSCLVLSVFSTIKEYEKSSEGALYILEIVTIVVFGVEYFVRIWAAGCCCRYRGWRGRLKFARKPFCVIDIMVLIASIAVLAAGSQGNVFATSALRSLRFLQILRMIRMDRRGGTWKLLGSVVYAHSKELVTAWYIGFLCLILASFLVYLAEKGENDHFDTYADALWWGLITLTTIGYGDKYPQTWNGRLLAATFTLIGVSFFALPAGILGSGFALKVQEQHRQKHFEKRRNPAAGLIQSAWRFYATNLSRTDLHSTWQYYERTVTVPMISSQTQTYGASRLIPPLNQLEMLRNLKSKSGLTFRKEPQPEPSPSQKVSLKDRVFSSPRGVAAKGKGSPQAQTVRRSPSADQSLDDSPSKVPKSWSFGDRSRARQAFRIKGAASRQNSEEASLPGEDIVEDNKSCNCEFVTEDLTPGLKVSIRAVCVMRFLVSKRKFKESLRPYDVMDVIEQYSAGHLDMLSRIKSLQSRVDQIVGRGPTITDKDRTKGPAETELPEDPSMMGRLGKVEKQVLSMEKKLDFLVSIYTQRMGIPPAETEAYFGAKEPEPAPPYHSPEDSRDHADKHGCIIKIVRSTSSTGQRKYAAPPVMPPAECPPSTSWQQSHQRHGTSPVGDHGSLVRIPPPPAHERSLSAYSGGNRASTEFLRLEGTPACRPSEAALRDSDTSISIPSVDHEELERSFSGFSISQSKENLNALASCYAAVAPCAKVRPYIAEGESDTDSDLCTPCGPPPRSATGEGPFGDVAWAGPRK
In all, about 2,400 compounds went through this assay and about 580 (24%) were called active.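 The calls were made as follows: active = activity change at or above the mean plus 3 SD of buffer wells without dofetilide, per plate; inactive = the rest.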 These entries were drawn from the full list.
Labels: t (active), f (inactive)

1) Fc1ccc(NC(=S)Nc2nccs2)cc1 = t
2) O=C(O)CNC(=O)c1ccc(NC(=O)/C(=C/c2ccccc2)NC(=O)c2ccco2)cc1 = f
3) COc1cc2c(cc1OC)C(C)N(C(=S)NC(=O)c1ccccc1)CC2 (stereo not drawn) = f
4) Cn1cc([N+](=O)[O-])c(C(=O)NCc2cc3cc(Cl)ccc3[nH]2)n1 = f
5) CC1CCN(c2ccc3c(c2)S(=O)(=O)c2ccccc2C3=O)CC1 = f
6) COc1cc(C2C(C#N)=C(N)Oc3c2ccc2ccccc32)ccc1OCC(=O)Nc1ccc(C)cc1 (stereo not drawn) = f
7) CCCCC1C2=C(CCCC2=O)OC2=C1C(=O)CCC2 = f
8) Oc1ccc2[nH]cnc2c1CN1CCCCC1 = f
9) CCn1c(=O)c(-[n+]2ccccc2)c(O)c2ccccc21 = f
10) Cc1ccc(/C=C/C(=O)c2ccccc(=O)c2O)c(C)c1 = t
11) Cc1ccc(NC(=O)CN2C(=O)S/C(=C/c3ccc(-c4cc(C(=O)O)ccc4C)o3)C2=O)cc1C = f
12) Cc1ccc2nsnc2c1S(=O)(=O)Nc1cccc2nsnc12 = t
13) CC(CCc1ccccc1)NC(=S)NC(=O)c1ccco1 (stereo not drawn) = t
14) CC(NC(=O)c1ccc(Br)cc1)c1ccc2c(c1)CCCC2 (stereo not drawn) = t
15) CN(C(=O)c1ccc(Cl)c(S(=O)(=O)N2CCOCC2)c1)c1ccccc1C(=O)O = f
16) COc1ccc(-c2cc(C(F)(F)F)nc(SCC(=O)NCc3cccs3)n2)cc1 = f
17) Cc1cc(C)c(-c2c(O)c3c(n(C)c2=O)CC(C)(C)CC3=O)c(C)c1 = f
18) CC1Cc2ccccc2N1C(=S)NC(=O)c1ccco1 (stereo not drawn) = f
19) Cc1ccc(C(=O)c2ccccc2C(=O)O)c(O)c1 = f
20) c1ccc(-c2ccc(-c3ccncn3)cc2)cc1 = f
21) CC(NC(=O)CCNC(=O)c1ccco1)c1ccc(F)cc1 (stereo not drawn) = f
22) Cc1ccc(-c2n[nH]c(=S)nc2-c2ccc(C)cc2)cc1 = f
23) Cc1csc2ncc(C(=O)N3c4ccccc4CC3C)c(=O)n12 (stereo not drawn) = f
